Values compiled from ChEMBL document CHEMBL4689842.

In this section, each of the compounds is paired with its reported Population Normal (%).
- Tested on: Fibroblast
- TEST: Multiplex assay against human fibroblast
- Format: toxicity, cell-based
- PARTICULARS: 24 h, 1 µM, compound concentration 1 uM, replicate 2
Number only, in %; omit the unit.

# annotated cases, reported Population Normal (%) shown
compound=COc1ccc(S(=O)(=O)N(CCO)c2ccccc2CN(C)C/C=C/c2ccc(Cl)cc2)cc1.O=P(O)(O)O target_desc=Fibroblast measurement_name="Population Normal (%)" value_measured=62
compound=Cl.Oc1ccc2c3c1O[C@H]1c4[nH]c5c(c4C[C@@]4(O)[C@@H](C2)N(CC2CC2)CC[C@]314)C[C@@]1(O)[C@H]2Cc3ccc(O)c4c3[C@@]1(CCN2CC1CC1)[C@H]5O4 target_desc=Fibroblast measurement_name="Population Normal (%)" value_measured=95

# next compound below
[Q] Find Population Normal (%) for CCn1cc(-c2ccnc3[nH]c(-c4cccc(CN(C)C)c4)cc23)c(-c2ccc(NC(=O)N(C)C)cc2)n1 [GSK-1070916] on Fibroblast and write it down.
[A] 76

###

- System: HEK-293T
- TEST: Multiplex assay against HEK293T
- Assay type: toxicity, cell-based
- PARTICULARS: human, 12 h, 10 µM, compound concentration 10 uM, replicate 2
Cut-off 200 on Total Cell Count, inclusive. At or above means Criterion met; below means Criterion not met.

Solved entries (count: 5):
molecule=COc1ccc(S(=O)(=O)N(CCO)c2ccccc2CN(C)C/C=C/c2ccc(Cl)cc2)cc1.O=P(O)(O)O target_desc=HEK-293T qualitative_label="Criterion met"
molecule=CN1CCN(C(=O)C(C)(C)c2ccc(C(=O)Nc3cn4cc(-c5cc(C(C)(C)C)cc(C(C)(C)C)c5)ccc4n3)cc2)CC1 target_desc=HEK-293T qualitative_label="Criterion met"
molecule=COc1cc(N2CCN(C)CC2)ccc1Nc1ncc2c(n1)N(C)c1ccccc1C(=O)N2C target_desc=HEK-293T qualitative_label="Criterion not met"
molecule="CN1CCC(=C2c3ccccc3CC(=O)c3sccc32)CC1.O=C(O)/C=C/C(=O)O [KETOTIFEN FUMARATE]" target_desc=HEK-293T qualitative_label="Criterion not met"
molecule=O=C(Nc1cccnn1)N1CCC(=Cc2cccc(Oc3ccc(C(F)(F)F)cn3)c2)CC1 target_desc=HEK-293T qualitative_label="Criterion met"

[Q] Please check the record COc1cccc2cc(-c3nc([C@H]4CC[C@H](C(=O)O)CC4)n4ncnc(N)c34)[nH]c12 and state if its Total Cell Count is at or above 200.
[A] Criterion met

[Q] Has CCn1c(=O)c(-c2ccc(-c3cncs3)cc2Cl)cc2cnc(Nc3ccc(N4CCN(C)CC4)cc3)nc21 a recorded Total Cell Count greater than or equal to 200?
[A] Criterion not met

###

Population Membrane Permeable-Phenotype (%) overview
- Tested on: Fibroblast
- TEST: Multiplex assay against human fibroblast
- Format: toxicity, cell-based
- PARTICULARS: 12 h, 1 µM, compound concentration 1 uM, replicate 1
Express it in %; write the number only.

Known results for molecules:
compound_structure=O=C(Nc1cccnn1)N1CCC(=Cc2cccc(Oc3ccc(C(F)(F)F)cn3)c2)CC1 value_measured=20
compound_structure=C=C1/C(=C\C=C2/CCC[C@]3(C)[C@@H]([C@H](C)/C=C/[C@H](C)C(C)C)CC[C@@H]23)C[C@@H](O)C[C@@H]1O value_measured=10
compound_structure=Cl.O=c1c2cccn2c2ccccc2n1CCCN1CCC(c2ccc(Cl)cc2)CC1 value_measured=10

The record that follows has no Population Membrane Permeable-Phenotype (%) shown yet.
[Q] Give the value of Population Membrane Permeable-Phenotype (%) reported for the following: Cl.Oc1ccc2c3c1O[C@H]1c4[nH]c5c(c4C[C@@]4(O)[C@@H](C2)N(CC2CC2)CC[C@]314)C[C@@]1(O)[C@H]2Cc3ccc(O)c4c3[C@@]1(CCN2CC1CC1)[C@H]5O4
[A] 20
